read-out: Matrix Metallopeptidase 9 (MMP9), MMP9 (gene 4318); assay: BSK_KF3CT_MMP9: BioMAP Diversity Plus: KF3CT Assay for Matrix Metallopeptidase 9 (MMP9) Biomarker Activity (AID 2283074); settings: primary human keratinocytes with fibroblasts; actives raise or lower the signal;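 on AC50: MMP9 protein level quantified by ELISA in the co-culture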
The source made the active and inactive calls. How the source made its calls: active means hit-call score of the fitted dose curve at least 0.9, where 1 is the maximum; inactive means score below 0.9.
Metric: AC50

Answered cases to consult:
Compound | Obs value
CN1C(=O)CC[C@H]1c1cccnc1 | inactive
CC/C(=C(/CC)c1ccc(O)cc1)c1ccc(O)cc1 | 12.3 µM (active)
O=c1c(-c2ccc(O)cc2)coc2cc(O)cc(O)c12 | 20 µM (active)
CCCCCc1ccc(N)cc1 | 13.7 µM (active)
CN(C)c1ccc(C(=C2C=CC(=[N+](C)C)C=C2)c2ccc(N(C)C)cc2)cc1 | 1.33 µM (active)
CC(O)CC(C)(C)O (stereo not given) | inactive
NC(=O)c1nc(-c2cccc(-c3cc(F)ccc3OCC(F)(F)C(F)(F)F)c2)n[nH]1 | 39.7 µM (active)
COc1cc(C(=O)NC2CCN(C)CC2)ccc1Nc1ncc2c(n1)N(C1CCCC1)CC(F)(F)C(=O)N2C | 18.6 µM (active)

Enquiry: Specify measured AC50 for `COc1ccc2cc(S(=O)(=O)N[C@H](CC(=O)N[C@H](Cc3ccc(CN4[C@H](C)CCC[C@@H]4C)cc3)C(=O)N(C)C(C)C)c3ccc4c(c3)OCO4)ccc2c1` .
Return: 32.8 µM (active)

Enquiry: Specify measured AC50 for `Cc1ncc(CO)c(CO)c1O` .
Return: inactive

Enquiry: Specify measured AC50 for `Cc1cc2c(cc1C(F)(F)F)N(C(=O)Nc1ccc(Oc3cccnc3C)nc1)CC2` .
Return: 29.8 µM (active)

Enquiry: Specify measured AC50 for `CCCCCCCCCCCC[N+](C)(C)C` .
Return: 30.7 µM (active)

====

assay: BSK_BE3C_SRB: Viability Assessment in the BioMAP Diversity Plus: BE3C Assay (AID 2283028); conditions: primary human bronchial epithelial cells;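 further: measured 24 h after chemical dosing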
Activity calls are given as the source filed them. How the source made its calls: active means hit-call score of the fitted dose curve at least 0.9, where 1 is the maximum; inactive means score below 0.9.
Parameter call: string, one of class 1 = active, class 0 = inactive

Compound | Qualitative label
CN(C)C(=O)C1(N2CCCCC2)CCN(CC[C@@]2(c3ccc(Cl)c(Cl)c3)CN(C(=O)c3ccccc3)CCO2)CC1 | class 1
O=C1c2ccccc2C(=O)N1CCc1noc(-c2ccc(CN3CCCCCC3)s2)n1 | class 0
CC(=O)N1CCN(c2ccc(OC[C@H]3CO[C@](Cn4ccnc4)(c4ccc(Cl)cc4Cl)O3)cc2)CC1 | class 0
CCN(CC)C(=O)c1cc(S(=O)(=O)Cc2ccccc2)c(N2CCC(c3ccccc3)CC2)cc1N(CC)CCN(C)C | class 1

# input for lookup
Enquiry: Which outcome did this test record for the compound `CC(C)(C)c1cc(/C=C2\SC(N)=NC2=O)cc(C(C)(C)C)c1O` ?
Return: class 0

====

read-out: UDP glucuronosyltransferase (UGT1A1), UGT1A1 (gene 54658); assay: LTEA_HepaRG_UGT1A1: Life Technologies and Expression Analysis (LTEA) Assay for UDP glucuronosyltransferase (UGT1A1) using HepaRG (AID 2283538); details: mRNA level, 48 h; actives raise or lower the signal
Active and inactive are the calls of the source. Rule for the calls: active = hit-call score of the fitted dose curve at least 0.9, where 1 is the maximum; inactive = score below 0.9.
Parameter call: string, one of true for active, false for inactive

Chemical smiles | Qualitative label
CC[C@@H]1C[C@H](N(Cc2cc(C(F)(F)F)cc(C(F)(F)F)c2)C(C)=O)c2cc(C(F)(F)F)ccc2N1C(=O)OC(C)C | true
Clc1cc(Cl)c2c(c1)N=C1CCCCCN1C2 | false
COc1cccc([C@H](O)C2CCN(CCc3ccc(F)cc3)CC2)c1OC | false

Enquiry: Which outcome did this test record for the compound `O=c1[nH]sc2ccccc12` ?
Return: false

Enquiry: Which outcome did this test record for the compound `Cc1cc2c(cc1C(F)(F)F)N(C(=O)Nc1ccc(Oc3cccnc3C)nc1)CC2` ?
Return: true

Enquiry: Which outcome did this test record for the compound `CCOC(=O)O[C@H](C)OC(=O)c1ccc2c(c1)cc(C(=O)NC1CCN(C(C)C)CC1)n2Cc1cc(-c2ccc(Cl)s2)on1` ?
Return: false

Enquiry: Which outcome did this test record for the compound `c1ccc(C[n+]2cccc3ccccc32)cc1` ?
Return: true

Enquiry: Which outcome did this test record for the compound `CN1C(=O)CC[C@H]1c1cccnc1` ?
Return: false

Enquiry: Which outcome did this test record for the compound `C[C@]12CC[C@@H]3c4ccc(O)cc4CC[C@H]3[C@@H]1CC[C@H]2O` ?
Return: true

Enquiry: Which outcome did this test record for the compound `O=C(Nc1ccc(Cl)cc1)Nc1ccc(Cl)c(Cl)c1` ?
Return: true

# credit: PubChem BioAssay (EPA / NIEHS)
